system: Saccharomyces cerevisiae; assay: checkerboard drug interaction (FICI, MICc); assay type: cell-based; details: MIC-MICc fold decrease of the inhibitor, with itraconazole
Assign true (1) to entries whose INH FD (ITR:INH) meets or exceeds 4; assign false (0) to the rest.

smiles.representation | class
CCCCCCCCCCCN1CCC[C@H]1C(=O)N[C@H](CC(=O)OC)C(=O)OC | false (0)
CCCCCCCCCN1CCC[C@H]1C(=O)N[C@H](CC(=O)O)C(=O)O | true (1)
CCCCCCCCCCCN1CCC[C@H]1C(=O)N[C@H](CC(=O)O)C(=O)O | false (0)
CCCCCCCCCCN1CCC[C@H]1C(=O)N[C@H](CC(=O)OC)C(=O)OC | false (0)
CCCCCCCCCN1CCC[C@H]1C(=O)N[C@H](CC(=O)OC)C(=O)OC | false (0)
CCCCCCCCCCCCN1CCC[C@H]1C(=O)N[C@H](CC(=O)O)C(=O)O | true (1)
CCCCCCCCCCCCN1CCC[C@H]1C(=O)N[C@H](CC(=O)OC)C(=O)OC | true (1)

---

INH MICc (FLC:INH) listing for selected compounds.
system: Saccharomyces cerevisiae; test: checkerboard drug interaction (FICI, MICc); assay type: cell-based; set-up: unit not given beside the values; conditions: MIC of the inhibitor in combination with fluconazole;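 also: simplified diagonal checkerboard screen pairing antifungals with FPPS inhibitors, FICI calculated under the Loewe additivity model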
endpoint: INH MICc (FLC:INH)

smiles.representation | endpoint | reported.value
CCCCCCCCCCCN1CCC[C@H]1C(=O)N[C@H](CC(=O)O)C(=O)O | INH MICc (FLC:INH) | 64
CCCCCCCCCCCN1CCC[C@H]1C(=O)N[C@@H](CC(=O)OC)C(=O)OC | INH MICc (FLC:INH) | 4
CCCCCCCCCCN1CCC[C@H]1C(=O)N[C@H](CC(=O)OC)C(=O)OC | INH MICc (FLC:INH) | 32
CCCCCCCCCCCCN1CCC[C@H]1C(=O)N[C@@H](CC(=O)OC)C(=O)OC | INH MICc (FLC:INH) | 2

---

Catalogue of compounds with associated MFC
system: Aspergillus flavus; test: MIC/MFC broth microdilution (CLSI); conditions: ATCC204304
endpoint: MFC

compound | reported.value
CCCCCCCCCCN1CCC[C@H]1C(=O)N[C@@H](CC(=O)OC)C(=O)OC | 64 µg/mL
CCCCCCCCCCCCN1CCC[C@H]1C(=O)N[C@@H](CC(=O)OC)C(=O)OC | > 128 µg/mL
CCCCCCCCCN1CCC[C@H]1C(=O)N[C@H](CC(=O)OC)C(=O)OC | > 128 µg/mL
CCCCCCCCCCCCN1CCC[C@H]1C(=O)N[C@H](CC(=O)O)C(=O)O | > 128 µg/mL
CCCCCCCCCN1CCC[C@H]1C(=O)N[C@@H](CC(=O)O)C(=O)O | > 128 µg/mL
CCCCCCCCCCn1cc[n+](CC(O)(P(=O)(O)O)P(=O)(O)O)c1 [10-ZOL, Decyl-zoledronate] | 4 µg/mL
CCCCCCCCCCCCN1CCC[C@H]1C(=O)N[C@H](CC(=O)OC)C(=O)OC | > 128 µg/mL
CC(=O)N1CCN(c2ccc(OCC3COC(Cn4ccnc4)(c4ccc(Cl)cc4Cl)O3)cc2)CC1 (centres unmarked) | 8 µg/mL
CCCCCCCCCCCN1CCC[C@H]1C(=O)N[C@H](CC(=O)OC)C(=O)OC | > 128 µg/mL
CCCCCCCCCN1CCC[C@H]1C(=O)N[C@@H](CC(=O)OC)C(=O)OC | > 128 µg/mL
CCCCCCCCCCN1CCC[C@H]1C(=O)N[C@H](CC(=O)OC)C(=O)OC | 64 µg/mL
CCCCCCCCCN1CCC[C@H]1C(=O)N[C@H](CC(=O)O)C(=O)O | > 128 µg/mL
CCCCCCCCCCCN1CCC[C@H]1C(=O)N[C@H](CC(=O)O)C(=O)O | > 128 µg/mL
CCCCCCCCCCCN1CCC[C@H]1C(=O)N[C@@H](CC(=O)O)C(=O)O | > 128 µg/mL
CCCCCCCCCCCN1CCC[C@H]1C(=O)N[C@@H](CC(=O)OC)C(=O)OC | > 128 µg/mL
O=P(O)(O)C(O)(Cn1ccnc1)P(=O)(O)O [ZOL, zoledronate] | > 128 µg/mL
CCC(C)n1ncn(-c2ccc(N3CCN(c4ccc(OCC5COC(Cn6cncn6)(c6ccc(Cl)cc6Cl)O5)cc4)CC3)cc2)c1=O (centres unmarked) | 2 µg/mL
